Hello, the source for this data is BigSolDB 2.1, in case you need it.

details: in water, 303.15 K
Value Type: solubility (mole fraction)
Give your answer as a number; write no unit.

State the recorded solubility (mole fraction) for this entry: CCOc1ccc(C2NC(=O)NC=C2C(=O)c2cc(OC)c(OC)c(OC)c2)cc1 (stereo unspecified) 1.11e-05

----------
details: in water, 313.15 K
Value Type: solubility (mole fraction)
Give your answer as a number; write no unit.

State the recorded solubility (mole fraction) for this entry: CCOc1ccc(C2NC(=O)NC=C2C(=O)c2cc(OC)c(OC)c(OC)c2)cc1 (stereo unspecified) 2.04e-05

----------
conditions: in PEG-400, 303.15 K
Value Type: solubility (mole fraction)
Give your answer as a number; write no unit.

State the recorded solubility (mole fraction) for this entry: CCOc1ccc(C2NC(=O)NC=C2C(=O)c2cc(OC)c(OC)c(OC)c2)cc1 (stereo unspecified) 0.00678
